Biological target: human JAK1 (a.a. 837-1142) (Homo sapiens)
Construct: human JAK1 (a.a. 837-1142); His tag (N); made in house; host or cells: insect cells (baculovirus)
Sequence (P23458 849-1154): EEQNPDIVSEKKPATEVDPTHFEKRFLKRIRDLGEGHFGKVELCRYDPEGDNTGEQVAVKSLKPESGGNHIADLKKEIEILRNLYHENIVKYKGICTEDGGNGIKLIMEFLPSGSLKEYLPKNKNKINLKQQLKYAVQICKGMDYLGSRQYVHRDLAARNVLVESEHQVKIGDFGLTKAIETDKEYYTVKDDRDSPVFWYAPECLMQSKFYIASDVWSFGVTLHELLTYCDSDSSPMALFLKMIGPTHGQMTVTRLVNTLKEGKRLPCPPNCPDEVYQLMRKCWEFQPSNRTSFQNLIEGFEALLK
Assay: In vitro JAK kinase assay (HTRF, phosphorylation of a biotinylated peptide), JAK1
Format: biochemical
Conditions: Table B1; read-out: JAK1 IC50
Counter-ions that a name gives are not always drawn.
Measurement kind: pIC50
Would you please state pIC50, meaning minus log10 of the concentration in mol/L, as a bare number?

*Q* For the compound shown here, Cc1noc(C)c1C(=O)N1CC[C@H](NC(=O)Nc2ccc3cc2CCc2cncc(c2)Nc2ncc(Cl)c(n2)N3)C1 [Example B274, bis(trifluoroacetate)] , give the reported pIC50.
*A* 7.22

*Q* For O=C(Cc1ccccc1)Nc1ccc2cc1CCc1cccc(c1)Nc1ncc(Cl)c(n1)N2 [Example B32, trifluoroacetate] , what is its reported pIC50?
*A* 8.55

*Q* Can you look up the measured pIC50 of O=C(Nc1cc2cc(c1)Nc1nc(ncc1Cl)Nc1cccc(c1)CC2)NC1CCCC1 [Example B215, trifluoroacetate] for me?
*A* 7.04

###

Molecular target: human JAK2 (a.a. 828-1132) (Homo sapiens, UniProt O60674)
Construct: JAK2 (a.a. 828-1132); His tag (N); made in house; host or cells: insect cells (baculovirus)
Sequence (O60674 828-1132): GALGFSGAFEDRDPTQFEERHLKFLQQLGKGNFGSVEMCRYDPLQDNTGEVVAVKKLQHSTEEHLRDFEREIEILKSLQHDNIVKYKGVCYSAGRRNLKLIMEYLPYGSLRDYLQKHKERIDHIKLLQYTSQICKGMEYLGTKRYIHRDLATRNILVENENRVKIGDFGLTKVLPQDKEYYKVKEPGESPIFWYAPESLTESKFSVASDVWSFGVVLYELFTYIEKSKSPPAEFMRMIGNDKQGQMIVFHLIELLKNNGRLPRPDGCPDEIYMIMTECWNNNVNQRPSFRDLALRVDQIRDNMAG
Assay: In vitro JAK kinase assay (HTRF, phosphorylation of a biotinylated peptide), JAK2
Type: biochemical
Details: Table B1
pIC50: −log10 of the molar value. Counter-ions that a name gives are not always drawn.
pIC50 of 7 or higher: label 1. Under 7: label 0.

*Q* Say whether O=C(Nc1ccc2cc1CCc1cncc(c1)Nc1ncc(Cl)c(n1)N2)N1CCN(c2ccccc2F)CC1 [Example B295, tris(trifluoroacetate)] shows pIC50 of 7 or more.
*A* label 0

*Q* Answer whether pIC50 of Cn1ccc(C(=O)N2CC[C@H](NC(=O)Nc3ccc4cc3CCc3cccc(c3)Nc3ncc(Cl)c(n3)N4)C2)n1 [Example B232, bis(trifluoroacetate)] is greater than or equal to 7.
*A* label 1

*Q* hey, is pIC50 for this one >= 7? O=C(NCCNS(=O)(=O)C1CC1)Nc1ccc2cc1CCc1cccc(c1)Nc1ncc(Cl)c(n1)N2 [Example B327, trifluoroacetate]
*A* label 1

*Q* Given the entry CCCc1ccccc1NC(=O)Nc1ccc2cc1CCc1cccc(c1)Nc1ncc(Cl)c(n1)N2 [Example B105, trifluoroacetate] , answer whether its pIC50 meets or surpasses 7.
*A* label 1

*Q* Is pIC50 at least 7? Consider O=C(Nc1cccc(F)c1)Nc1cc2cc(c1)Nc1nc(ncc1Cl)Nc1cccc(c1)CC2 [Example B214, trifluoroacetate]
*A* label 0

*Q* Reported pIC50 reaches at least 7 for O=C(NO)Nc1ccc2cc1CCc1cccc(c1)Nc1ncc(Cl)c(n1)N2 [Example B324, trifluoroacetate] ?
*A* label 1

*Q* Would you say COc1cccc(NC(=O)Nc2ccc3cc2CCc2cccc(c2)Nc2ncc(Cl)c(n2)N3)c1 [Example B100, trifluoroacetate] shows pIC50 at minimum 7?
*A* label 1

*Q* Identify whether the reported pIC50 of the following compound is 7 or greater: Cc1noc(C)c1C(=O)N1CC[C@H](NC(=O)Nc2ccc3cc2CCc2cncc(c2)Nc2ncc(Cl)c(n2)N3)C1 [Example B274, bis(trifluoroacetate)]
*A* label 0

*Q* Tell me whether pIC50 is at least 7 here: O=C(Nc1ccc2cc1CCc1cccc(c1)Nc1ncc(Cl)c(n1)N2)c1ccoc1 [Example B59, trifluoroacetate]
*A* label 1

*Q* Determine whether measured pIC50 meets or exceeds 7 for O=C(Nc1cccc(C(F)(F)F)c1)Nc1ccc2cc1CCc1cccc(c1)Nc1ncc(Cl)c(n1)N2 [Example B112, trifluoroacetate]
*A* label 1

*Q* Could you verify whether the entry Cn1ccc(S(=O)(=O)NCCNC(=O)Nc2ccc3cc2CCc2cccc(c2)Nc2ncc(Cl)c(n2)N3)n1 [Example B332, trifluoroacetate] shows pIC50 of no less than 7?
*A* label 1

###

Target: TYK2 (Homo sapiens)
Sequence (P29597 whole entry): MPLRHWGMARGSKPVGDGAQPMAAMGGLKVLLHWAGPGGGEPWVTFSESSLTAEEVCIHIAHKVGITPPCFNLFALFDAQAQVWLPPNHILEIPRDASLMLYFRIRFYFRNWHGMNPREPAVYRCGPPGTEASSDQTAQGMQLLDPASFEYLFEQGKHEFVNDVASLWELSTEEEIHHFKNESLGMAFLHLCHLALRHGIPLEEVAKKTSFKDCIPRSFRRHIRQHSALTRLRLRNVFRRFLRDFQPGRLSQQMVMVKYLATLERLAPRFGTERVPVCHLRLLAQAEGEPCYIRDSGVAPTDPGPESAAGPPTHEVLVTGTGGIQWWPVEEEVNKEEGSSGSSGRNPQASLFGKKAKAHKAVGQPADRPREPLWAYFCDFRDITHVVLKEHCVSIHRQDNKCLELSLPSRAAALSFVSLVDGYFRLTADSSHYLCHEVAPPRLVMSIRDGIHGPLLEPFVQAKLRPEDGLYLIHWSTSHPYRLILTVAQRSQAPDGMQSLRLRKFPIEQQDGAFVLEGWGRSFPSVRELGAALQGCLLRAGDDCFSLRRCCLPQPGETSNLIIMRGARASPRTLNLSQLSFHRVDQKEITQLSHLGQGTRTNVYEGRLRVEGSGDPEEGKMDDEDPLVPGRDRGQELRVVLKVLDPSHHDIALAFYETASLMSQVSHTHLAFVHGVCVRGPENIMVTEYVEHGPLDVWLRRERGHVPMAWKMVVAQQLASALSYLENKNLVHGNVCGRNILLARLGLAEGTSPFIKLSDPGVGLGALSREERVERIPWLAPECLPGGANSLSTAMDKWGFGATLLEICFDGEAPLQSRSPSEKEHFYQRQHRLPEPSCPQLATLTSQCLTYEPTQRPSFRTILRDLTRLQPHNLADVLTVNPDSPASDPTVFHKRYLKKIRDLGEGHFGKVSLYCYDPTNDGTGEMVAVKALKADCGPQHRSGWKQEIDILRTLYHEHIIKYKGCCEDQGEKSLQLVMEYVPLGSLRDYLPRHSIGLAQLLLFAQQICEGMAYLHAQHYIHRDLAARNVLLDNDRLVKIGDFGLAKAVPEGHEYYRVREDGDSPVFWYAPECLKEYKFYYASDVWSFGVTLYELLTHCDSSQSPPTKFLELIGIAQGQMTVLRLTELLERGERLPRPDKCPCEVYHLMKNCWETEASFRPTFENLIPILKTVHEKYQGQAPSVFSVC
Assay: TYK2 kinase inhibition (Table A1)
Type: biochemical
Conditions: Table B1
Structures can show the parent of a compound that is named as a salt.
Could you mark each record 1.0 if its IC50 falls strictly under 8 nM, and 0.0 if it equals or exceeds it?

*Q* Please check: IC50 for Cc1oncc1C(=O)N1CC[C@H](NC(=O)Nc2ccc3cc2CCc2cncc(c2)Nc2ncc(Cl)c(n2)N3)C1 [Example B266, bis(trifluoroacetate)] , strictly under 8 nM or not?
*A* 0.0

*Q* Strictly below 8 nM in IC50? O=C(Nc1ccc2cc1CCc1cncc(c1)Nc1ncc(Cl)c(n1)N2)N1CCC(c2ccccc2)CC1 [Example B314, bis(trifluoroacetate)]
*A* 0.0

*Q* Please state whether IC50 is below 8 nM for N#Cc1cccc(S(=O)(=O)Nc2ccc3cc2CCc2cccc(c2)Nc2ncc(Cl)c(n2)N3)c1 [Example B153, trifluoroacetate]
*A* 1.0

*Q* Lab note: confirm whether the reported IC50 for this compound is below 8 nM, equality not counting. compound: O=C(Nc1ccc2cc1CCc1cncc(c1)Nc1ncc(Cl)c(n1)N2)N1CCN(c2ccc(C(F)(F)F)cn2)CC1 [Example B301, tris(trifluoroacetate)]
*A* 0.0

*Q* Confirm or reject: IC50 of Cc1cccc(Cl)c1NC(=O)Nc1ccc2cc1CCc1cccc(c1)Nc1ncc(Cl)c(n1)N2 [Example B122, trifluoroacetate] lies strictly below 8 nM
*A* 0.0

###

For each of the molecules below, state its log10(IC50).
Biological target: human JAK1 (a.a. 837-1142) (Homo sapiens)
Construct: human JAK1 (a.a. 837-1142); His tag (N); made in house; host or cells: insect cells (baculovirus)
Assay: In vitro JAK kinase assay (HTRF, phosphorylation of a biotinylated peptide), JAK1
Type: biochemical
Details: Table D1; read-out: JAK1 IC50
Where a name gives a salt, the structure may show the parent alone.
Scale: log10; quantity: IC50; unit before log: nM

*Q* # query: log10(IC50) of entry O=C(Nc1cc2cc(c1)OCCSc1cccc(c1)Nc1nc(ncc1Cl)N2)c1ccncc1 [Example D60, bis(trifluoroacetate)]
*A* 0.30

*Q* Suppose we examine the molecule O=C(C[C@@H]1CCN(C(=O)c2nccs2)C1)Nc1ccc2cc1CCc1cncc(c1)Nc1ncc(Cl)c(n1)N2 [Example D125, bis(trifluoroacetate)] ; what log10(IC50) value has been reported?
*A* 1.53

*Q* Request the reported log10(IC50) associated with Clc1cnc2nc1Nc1cccc(c1)CNCc1cccc(c1)N2 [Example D73, bis(trifluoroacetate)]
*A* 1.92

*Q* Could you tell me which log10(IC50) is on file for O=C(CC1CN(C(=O)c2c[nH]nn2)C1)Nc1ccc2cc1CCc1cncc(c1)Nc1ncc(Cl)c(n1)N2 [Example D148, bis(trifluoroacetate)] ?
*A* 1.18

*Q* Record request: log10(IC50) value, item O=C(C[C@@H]1CCN(C(=O)c2cn[nH]c2)C1)Nc1ccc2cc1CCc1cncc(c1)Nc1ncc(Cl)c(n1)N2 [Example D133, bis(trifluoroacetate)]
*A* 1.86

*Q* // returns reported log10(IC50) for input Clc1cnc2nc1Nc1cccc(c1)NCCOc1cccc(c1)N2 [Example D72, bis(trifluoroacetate)]
*A* 1.08

*Q* For the molecule shown here, Clc1cnc2nc1Nc1cccc(c1)COCc1cccc(c1)N2 [Example D21, trifluoroacetate] , give the reported log10(IC50).
*A* 0.91

*Q* Consider the molecule N#Cc1cccc(NC(=O)N2CCN(c3ccc4cc3CCc3cccc(c3)Nc3ncc(Cl)c(n3)N4)CC2)c1 [Example D89, bis(trifluoroacetate)] and give its measured log10(IC50).
*A* 1.82

*Q* Which value of log10(IC50) has been reported for CC(=O)N1Cc2cccc(c2)Nc2nc(ncc2Cl)Nc2cccc1c2 [Example D71, trifluoroacetate] in the records?
*A* 2.18

*Q* Please give the measured log10(IC50) for this molecule: CC(=O)N1CCC(COc2ccc3cc2CCc2cncc(c2)Nc2ncc(Cl)c(n2)N3)CC1 [Example D227, bis(trifluoroacetate)]
*A* 1.86

*Q* So what does the record say about log10(IC50) for CN1CCN(Cc2cc3cc(c2)Nc2ncc(Cl)c(n2)Nc2cccc(c2)OCC3)CC1 [Example D190, tris(trifluoroacetate)] ?
*A* 1.38

*Q* Any idea what log10(IC50) was measured for N#Cc1ccc(NC(=O)N2CC[C@H](CC(=O)Nc3ccc4cc3CCc3cncc(c3)Nc3ncc(Cl)c(n3)N4)C2)cc1 [Example D98, bis(trifluoroacetate)] ?
*A* 1.08

*Q* Record request: log10(IC50) value, item O=C(Nc1ccccc1)c1cc2cc(c1)OCCSc1cccc(c1)Nc1nc(ncc1Cl)N2 [Example D50, trifluoroacetate]
*A* 0.86

*Q* Which log10(IC50) is reported for this molecule? CC(=O)N1CCN(C(=O)COc2ccc3cc2CCc2cncc(c2)Nc2ncc(Cl)c(n2)N3)CC1 [Example D252, bis(trifluoroacetate)]
*A* 1.81

*Q* Please give the measured log10(IC50) for this molecule: O=C(Cn1c(=O)oc2c3cc(cc21)Nc1nc(ncc1Cl)Nc1cccc(c1)CC3)N1CCOCC1 [Example D187, trifluoroacetate]
*A* 2.30

*Q* Data request, read-out log10(IC50), for O=C(Nc1ccccc1)N1CCC(CCOc2ccc3cc2CCc2cncc(c2)Nc2ncc(Cl)c(n2)N3)CC1 [Example D162, bis(trifluoroacetate)]
*A* 1.00

*Q* What value of measured log10(IC50) is listed for O=C(COc1ccc2cc1CCc1cncc(c1)Nc1ncc(Cl)c(n1)N2)N1CCN(c2nccs2)CC1 [Example D230, tris(trifluoroacetate)] ?
*A* 1.40

*Q* Would you kindly share the measured log10(IC50) for O=C(Nc1cccc(N2CCOCC2)n1)N1CCC(CCOc2ccc3cc2CCc2cncc(c2)Nc2ncc(Cl)c(n2)N3)CC1 [Example D176, tris(trifluoroacetate)] ?
*A* 2.09

*Q* Given the entry Clc1cnc2nc1Nc1cccc(c1)CCSc1cccc(c1)N2 [Example D19, hydrochloride] , report its measured log10(IC50).
*A* 2.18

*Q* # lookup: log10(IC50) of O=c1[nH]c2cc3cc(c2o1)CCc1cccc(c1)Nc1ncc(Cl)c(n1)N3 [Example D184]
*A* -0.05

*Q* Any idea what its log10(IC50) is? The molecule is Clc1cnc2nc1Nc1cccc(c1)SSc1cccc(c1)N2 [Example D12, trifluoroacetate]
*A* 2.25

*Q* Quick check: log10(IC50) of O=S(=O)(Nc1cc2cc(c1)OCCSc1cccc(c1)Nc1nc(ncc1Cl)N2)c1ccccc1 [Example D68, trifluoroacetate] ?
*A* 1.15

*Q* Which log10(IC50) value is on record for Clc1cnc2nc1Nc1cccc(c1)OCCOc1cccc(c1)N2 [Example D10, trifluoroacetate] ?
*A* 0.91

*Q* Need log10(IC50) of N#Cc1ccc(NC(=O)N2CCC(CCOc3ccc4cc3CCc3cncc(c3)Nc3ncc(Cl)c(n3)N4)CC2)cc1 [Example D174, bis(trifluoroacetate)] , thanks.
*A* 2.20

*Q* Consider the molecule O=C(COc1ccc2cc1CCc1cncc(c1)Nc1ncc(Cl)c(n1)N2)N1CCNCC1 [Example D229, tris(trifluoroacetate)] and give its measured log10(IC50).
*A* 2.18

*Q* For the molecule N#Cc1cccc(NC(=O)N2CC[C@H](CC(=O)Nc3ccc4cc3CCc3cncc(c3)Nc3ncc(Cl)c(n3)N4)C2)c1 [Example D99, bis(trifluoroacetate)] , what log10(IC50) is on record?
*A* 1.18
